study target: Pim-1 kinase (Homo sapiens, UniProt P11309)
Sequence (P11309 whole entry): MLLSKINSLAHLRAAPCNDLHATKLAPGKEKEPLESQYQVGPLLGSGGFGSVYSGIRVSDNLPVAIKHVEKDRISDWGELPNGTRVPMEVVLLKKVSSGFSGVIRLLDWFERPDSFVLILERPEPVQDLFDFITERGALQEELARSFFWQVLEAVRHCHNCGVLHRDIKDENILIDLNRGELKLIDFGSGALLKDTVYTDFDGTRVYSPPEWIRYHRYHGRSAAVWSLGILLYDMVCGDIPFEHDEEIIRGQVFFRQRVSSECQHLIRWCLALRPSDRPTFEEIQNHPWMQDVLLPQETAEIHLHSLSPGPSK
pIC50: −log10 of the molar value.
Label Condition not met if pIC50 falls below 6; label Condition met in every other case.

{"columns": ["molecule", "class label"],
 "data": [
  ["N#Cc1c(-c2cc3ccccc3nc2Cl)cc(-c2ccc(Cl)cc2Cl)[nH]c1=O [3e]", "Condition not met"]
]}

Turning now to a further record.
**Q:** Hi, just wondering whether N#Cc1c(-c2cc3ccccc3nc2Cl)cc(-c2ccc(Br)cc2)nc1Cl [4d] shows pIC50 of 6 or higher.
**A:** Condition met

====

study target: Pim-1 kinase (Homo sapiens, UniProt P11309)
readout label: IC50 (nM)
Write the answer as a number in nM, unit excluded.

{"columns": ["structure string", "quantity unit", "result"],
 "data": [
  ["N#Cc1c(-c2cc3ccccc3nc2Cl)cc(-c2ccccc2)nc1Cl", "nM", 1240]
]}

// IC50 (Pim-1 kinase (Homo sapiens, UniProt P11309)) for N#Cc1c(-c2cc3ccccc3nc2Cl)cc(-c2ccc(Cl)cc2Cl)nc1Cl = 1420

Tested on Pim-1 kinase (Homo sapiens, UniProt P11309): N#Cc1c(-c2cc3ccccc3nc2Cl)cc(-c2cccc(N)c2)nc1Cl . Observed IC50: 630

Log: Pim-1 kinase (Homo sapiens, UniProt P11309), compound COc1ccc(-c2cc(-c3cc4ccccc4nc3Cl)c(C#N)c(Cl)n2)cc1 , IC50 = 610

Value (IC50, Pim-1 kinase (Homo sapiens, UniProt P11309)) for record N#Cc1c(-c2cc3ccccc3nc2Cl)cc(-c2ccc(Br)cc2)[nH]c1=O = 720

====

Test system: MCF-7 cells
assay summary: MTT cytotoxicity assay, MCF-7
Assay type: cell-based
assay setup: Homo sapiens, MCF7, 24 h, read-out: IC50 MCF-7
Examples of compounds with documented pIC50 follow.
Lab note: report pIC50 as minus log10 of the concentration in molar units, number only.

Below: 5 compounds and their reported pIC50.
{"columns": ["compound", "study target", "pIC50"],
 "data": [
  ["COc1ccc(-c2cc(-c3cc4ccccc4nc3Cl)c(C#N)c(Cl)n2)cc1", "MCF-7 cells", 4.80],
  ["N#Cc1c(-c2cc3ccccc3nc2Cl)cc(-c2ccc(Cl)cc2Cl)nc1Cl", "MCF-7 cells", 4.26],
  ["N#Cc1c(-c2cc3ccccc3nc2Cl)cc(-c2ccccc2)nc1Cl", "MCF-7 cells", 4.12],
  ["N#Cc1c(-c2cc3ccccc3nc2Cl)cc(-c2cccc(N)c2)[nH]c1=O", "MCF-7 cells", 4.37],
  ["COc1ccc(-c2cc(-c3cc4ccccc4nc3Cl)c(C#N)c(=O)[nH]2)cc1", "MCF-7 cells", 4.60]
]}

Please fill in: pIC50 reported for N#Cc1c(-c2cc3ccccc3nc2Cl)cc(-c2cccc(N)c2)nc1Cl = 4.72

Lab note: N#Cc1c(-c2cc3ccccc3nc2Cl)cc(-c2ccc(Cl)cc2Cl)[nH]c1=O gave pIC50 of 4.34

Given item N#Cc1c(-c2cc3ccccc3nc2Cl)cc(-c2ccc(Br)cc2)nc1Cl , the value recorded as its pIC50 is 5.07

Lab note: N#Cc1c(-c2cc3ccccc3nc2Cl)cc(-c2ccc(Br)cc2)[nH]c1=O gave pIC50 of 4.70

In plain terms, O=c1[nH]cc(F)c(=O)[nH]1 [5-FU, 5-fluorouracil, reference compound] has a documented pIC50 of 5.11

The compound listed as N#Cc1c(-c2cc3ccccc3nc2Cl)cc(-c2ccccc2)[nH]c1=O shows pIC50 equal to 4.22

====

A set of molecules tested on Pim-1 kinase (Homo sapiens, UniProt P11309), with measured pIC50:
Units for pIC50: none; it is -log10 of a concentration expressed in mol/L.

See these solved cases before continuing.
{"columns": ["molecule", "readout label", "result"],
 "data": [
  ["N#Cc1c(-c2cc3ccccc3nc2Cl)cc(-c2ccccc2)[nH]c1=O [3a]", "pIC50", 6.05],
  ["COc1ccc(-c2cc(-c3cc4ccccc4nc3Cl)c(C#N)c(=O)[nH]2)cc1 [3c]", "pIC50", 6.10]
]}

Switching to the query record.
The reported pIC50 value, Pim-1 kinase (Homo sapiens, UniProt P11309), for N#Cc1c(-c2cc3ccccc3nc2Cl)cc(-c2cccc(N)c2)[nH]c1=O [3b] reads 6.07

Data origin, for the record: paper PMC10249106
